Molecular target: CYP2C19 (Homo sapiens)
Sequence (P33261 whole entry): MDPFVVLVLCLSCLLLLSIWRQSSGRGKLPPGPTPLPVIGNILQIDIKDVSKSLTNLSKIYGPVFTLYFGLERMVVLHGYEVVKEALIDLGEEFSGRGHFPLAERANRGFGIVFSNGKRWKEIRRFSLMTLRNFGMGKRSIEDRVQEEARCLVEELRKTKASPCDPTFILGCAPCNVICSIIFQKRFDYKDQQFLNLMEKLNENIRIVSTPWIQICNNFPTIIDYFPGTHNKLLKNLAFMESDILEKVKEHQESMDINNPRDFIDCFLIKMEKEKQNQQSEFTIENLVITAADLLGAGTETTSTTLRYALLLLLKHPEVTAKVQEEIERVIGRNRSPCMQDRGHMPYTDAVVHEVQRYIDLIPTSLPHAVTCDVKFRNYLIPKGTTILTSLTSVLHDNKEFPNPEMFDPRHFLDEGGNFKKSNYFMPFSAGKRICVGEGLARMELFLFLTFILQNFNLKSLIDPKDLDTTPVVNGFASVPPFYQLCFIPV
Test: Direct and time-dependent CYP inhibition, pooled human liver microsomes
Conditions: human liver microsomes; read-out: In vitro IC50, direct inhibition, CYP2C19
pIC50: −log10 of the molar value.
measurement_kind: pIC50

Which pIC50 is listed for CCOC(=O)[C@@H]1CC2(CCN(c3cc(O[C@H](c4ccc(Cl)cc4-c4ccccc4)C(F)(F)F)nc(N)n3)CC2)CN1 [Rodatristat ethyl] ? < 4.52

---

Target: UniProt Q9NPD5
Sequence (Q9NPD5 whole entry): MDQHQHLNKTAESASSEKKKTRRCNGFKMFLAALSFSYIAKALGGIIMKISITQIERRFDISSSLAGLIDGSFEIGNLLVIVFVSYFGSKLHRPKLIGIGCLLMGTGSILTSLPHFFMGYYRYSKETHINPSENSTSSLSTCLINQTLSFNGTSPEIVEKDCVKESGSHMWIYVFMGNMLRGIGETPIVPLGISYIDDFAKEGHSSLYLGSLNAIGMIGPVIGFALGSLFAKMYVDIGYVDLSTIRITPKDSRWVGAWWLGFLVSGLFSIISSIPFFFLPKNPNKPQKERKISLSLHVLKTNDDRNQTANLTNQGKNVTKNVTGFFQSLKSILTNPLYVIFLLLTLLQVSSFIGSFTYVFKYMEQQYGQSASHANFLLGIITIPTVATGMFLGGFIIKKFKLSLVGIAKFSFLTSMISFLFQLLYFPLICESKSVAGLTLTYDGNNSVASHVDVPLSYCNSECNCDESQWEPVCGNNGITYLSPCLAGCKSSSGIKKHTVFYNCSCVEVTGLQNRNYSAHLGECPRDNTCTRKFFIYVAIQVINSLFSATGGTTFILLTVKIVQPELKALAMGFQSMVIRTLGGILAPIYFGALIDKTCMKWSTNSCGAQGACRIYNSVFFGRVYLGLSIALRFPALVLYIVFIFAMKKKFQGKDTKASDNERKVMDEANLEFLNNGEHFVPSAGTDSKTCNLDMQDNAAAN
measurement_kind: IC50 (µM)
Give a bare numeral; the unit µM is implied.

Reported IC50 for UniProt Q9NPD5, given CCOC(=O)[C@@H]1CC2(CCN(c3cc(O[C@H](c4ccc(Cl)cc4-c4ccccc4)C(F)(F)F)nc(N)n3)CC2)CN1 ? 12.3

---

Biological target: CYP2C9 (Homo sapiens, UniProt P11712)
Sequence (P11712 whole entry): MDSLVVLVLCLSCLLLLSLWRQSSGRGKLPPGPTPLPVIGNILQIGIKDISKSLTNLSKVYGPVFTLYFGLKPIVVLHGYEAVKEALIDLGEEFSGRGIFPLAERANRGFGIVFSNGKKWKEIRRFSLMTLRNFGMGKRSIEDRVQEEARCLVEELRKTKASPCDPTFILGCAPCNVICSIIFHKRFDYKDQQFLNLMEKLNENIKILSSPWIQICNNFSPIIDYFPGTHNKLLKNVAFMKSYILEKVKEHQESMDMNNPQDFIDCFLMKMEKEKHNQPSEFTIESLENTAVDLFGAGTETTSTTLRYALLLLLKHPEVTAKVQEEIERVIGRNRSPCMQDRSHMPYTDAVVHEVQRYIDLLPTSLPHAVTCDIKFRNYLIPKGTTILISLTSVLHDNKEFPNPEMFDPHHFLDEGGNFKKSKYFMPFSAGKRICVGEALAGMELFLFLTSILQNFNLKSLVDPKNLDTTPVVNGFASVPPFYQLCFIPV
Test: Direct and time-dependent CYP inhibition, pooled human liver microsomes
Format: in vitro ADME
Design: from tissue; host or cells: pooled human liver microsomes (n=200 donors)
Settings: human liver microsomes; read-out: In vitro IC50, direct inhibition, CYP2C9
pIC50: −log10 of the molar value.
measurement_kind: pIC50

smiles | pIC50
Nc1nc(O[C@H](c2ccc(Cl)cc2-c2ccccc2)C(F)(F)F)cc(N2CCC3(CC2)CN[C@H](C(=O)O)C3)n1 | < 4.52

Reported pIC50 for CYP2C9 (Homo sapiens, UniProt P11712), given CCOC(=O)[C@@H]1CC2(CCN(c3cc(O[C@H](c4ccc(Cl)cc4-c4ccccc4)C(F)(F)F)nc(N)n3)CC2)CN1 ? < 4.52

---

Target: MATE1 (Homo sapiens, UniProt Q96FL8)
Sequence (Q96FL8 whole entry): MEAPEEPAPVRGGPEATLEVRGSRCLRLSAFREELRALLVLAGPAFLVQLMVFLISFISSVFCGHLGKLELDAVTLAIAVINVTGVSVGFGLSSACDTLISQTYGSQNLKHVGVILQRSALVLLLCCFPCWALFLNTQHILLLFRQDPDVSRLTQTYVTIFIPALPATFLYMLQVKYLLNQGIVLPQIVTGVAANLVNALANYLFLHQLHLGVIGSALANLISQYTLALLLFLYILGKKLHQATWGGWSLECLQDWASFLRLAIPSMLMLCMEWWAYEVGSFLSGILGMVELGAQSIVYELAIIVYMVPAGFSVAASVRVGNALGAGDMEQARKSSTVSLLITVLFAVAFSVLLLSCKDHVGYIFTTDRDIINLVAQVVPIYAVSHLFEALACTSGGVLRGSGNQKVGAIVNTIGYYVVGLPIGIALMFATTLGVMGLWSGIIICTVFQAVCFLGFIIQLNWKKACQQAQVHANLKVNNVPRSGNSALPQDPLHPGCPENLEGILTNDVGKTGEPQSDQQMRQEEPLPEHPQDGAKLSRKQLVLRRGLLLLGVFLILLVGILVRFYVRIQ
Experiment: Transporter inhibition, transporter-expressing in vitro system
Type: in vitro ADME
Details: transporter-expressing in vitro system (MATE1); nominal 30 μM
measurement_kind: inhibition at 30 µM (%)
Give a bare numeral; the unit % is implied.

Which inhibition at 30 µM is listed for Nc1nc(O[C@H](c2ccc(Cl)cc2-c2ccccc2)C(F)(F)F)cc(N2CCC3(CC2)CN[C@H](C(=O)O)C3)n1 [Rodatristat] ? 30

---

Biological target: CYP2B6 (Homo sapiens, UniProt P20813)
Sequence (P20813 1-491): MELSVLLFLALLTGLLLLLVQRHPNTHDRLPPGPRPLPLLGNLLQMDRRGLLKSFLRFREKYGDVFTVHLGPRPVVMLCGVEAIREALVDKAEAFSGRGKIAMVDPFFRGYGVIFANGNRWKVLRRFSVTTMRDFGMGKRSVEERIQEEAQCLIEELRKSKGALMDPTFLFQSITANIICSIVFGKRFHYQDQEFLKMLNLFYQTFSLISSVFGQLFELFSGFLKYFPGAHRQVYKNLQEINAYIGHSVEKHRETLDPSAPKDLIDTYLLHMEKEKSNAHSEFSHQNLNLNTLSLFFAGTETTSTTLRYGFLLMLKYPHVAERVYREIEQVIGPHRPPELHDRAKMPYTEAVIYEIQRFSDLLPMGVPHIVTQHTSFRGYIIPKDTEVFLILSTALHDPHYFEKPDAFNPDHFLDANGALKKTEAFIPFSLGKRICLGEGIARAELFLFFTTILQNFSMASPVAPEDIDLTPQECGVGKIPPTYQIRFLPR
Test: Direct and time-dependent CYP inhibition, pooled human liver microsomes
Conditions: human liver microsomes; read-out: In vitro IC50, direct inhibition, CYP2B6
measurement_kind: IC50 (µM)
Give a bare numeral; the unit µM is implied.

Which IC50 is listed for CCOC(=O)[C@@H]1CC2(CCN(c3cc(O[C@H](c4ccc(Cl)cc4-c4ccccc4)C(F)(F)F)nc(N)n3)CC2)CN1 [Rodatristat ethyl] ? 13

---

Biological target: CYP3A4/5 (Homo sapiens)
Experiment: Direct and time-dependent CYP inhibition, pooled human liver microsomes
Type: in vitro ADME
Conditions: human, pooled human liver microsomes; probe substrate not stated; read-out: IC50, CYP3A4/5
pIC50: −log10 of the molar value.
measurement_kind: pIC50

Reported pIC50 for CYP3A4/5 (Homo sapiens), given Nc1nc(O[C@H](c2ccc(Cl)cc2-c2ccccc2)C(F)(F)F)cc(N2CCC3(CC2)CN[C@H](C(=O)O)C3)n1 ? < 4.52

---

Target: MRP2 (Homo sapiens)
Sequence (Q92887 whole entry): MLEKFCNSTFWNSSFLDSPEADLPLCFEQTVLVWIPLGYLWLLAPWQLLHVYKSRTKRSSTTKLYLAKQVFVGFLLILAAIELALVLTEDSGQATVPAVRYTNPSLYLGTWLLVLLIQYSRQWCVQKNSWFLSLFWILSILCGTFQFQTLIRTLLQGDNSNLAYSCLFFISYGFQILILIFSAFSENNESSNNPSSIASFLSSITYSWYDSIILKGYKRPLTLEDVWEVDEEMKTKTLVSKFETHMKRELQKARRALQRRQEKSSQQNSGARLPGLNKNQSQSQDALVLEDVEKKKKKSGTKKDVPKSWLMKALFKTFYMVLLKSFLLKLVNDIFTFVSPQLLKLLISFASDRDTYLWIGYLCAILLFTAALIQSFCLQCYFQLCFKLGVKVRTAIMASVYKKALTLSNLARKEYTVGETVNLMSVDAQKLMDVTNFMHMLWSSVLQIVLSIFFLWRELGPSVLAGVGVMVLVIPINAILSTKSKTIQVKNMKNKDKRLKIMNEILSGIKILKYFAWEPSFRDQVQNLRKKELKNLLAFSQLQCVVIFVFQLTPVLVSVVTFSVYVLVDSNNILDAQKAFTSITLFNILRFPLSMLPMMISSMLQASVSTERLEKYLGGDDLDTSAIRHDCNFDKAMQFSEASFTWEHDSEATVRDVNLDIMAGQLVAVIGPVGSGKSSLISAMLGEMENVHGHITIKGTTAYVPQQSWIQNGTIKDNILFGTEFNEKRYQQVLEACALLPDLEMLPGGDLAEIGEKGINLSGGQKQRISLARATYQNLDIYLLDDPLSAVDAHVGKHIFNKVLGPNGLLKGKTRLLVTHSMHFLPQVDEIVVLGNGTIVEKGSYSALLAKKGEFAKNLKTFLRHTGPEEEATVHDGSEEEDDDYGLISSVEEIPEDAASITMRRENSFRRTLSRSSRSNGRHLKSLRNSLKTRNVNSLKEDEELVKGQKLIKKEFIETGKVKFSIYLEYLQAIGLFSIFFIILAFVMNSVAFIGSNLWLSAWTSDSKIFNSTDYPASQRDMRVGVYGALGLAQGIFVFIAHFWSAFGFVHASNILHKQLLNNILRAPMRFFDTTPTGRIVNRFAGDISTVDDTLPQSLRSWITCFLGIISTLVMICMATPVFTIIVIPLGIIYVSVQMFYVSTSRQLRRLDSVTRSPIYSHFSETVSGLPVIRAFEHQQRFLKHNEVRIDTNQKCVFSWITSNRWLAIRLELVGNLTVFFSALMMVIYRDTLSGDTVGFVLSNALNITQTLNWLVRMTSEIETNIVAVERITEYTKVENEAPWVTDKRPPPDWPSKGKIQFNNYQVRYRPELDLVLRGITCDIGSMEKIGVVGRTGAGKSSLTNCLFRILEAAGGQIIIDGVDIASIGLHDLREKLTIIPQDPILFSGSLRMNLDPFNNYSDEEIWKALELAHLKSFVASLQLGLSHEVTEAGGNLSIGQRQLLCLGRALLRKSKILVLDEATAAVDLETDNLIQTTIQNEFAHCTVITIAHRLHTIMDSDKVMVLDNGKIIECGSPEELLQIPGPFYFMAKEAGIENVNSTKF
Experiment: Transporter inhibition, in vitro
Format: in vitro ADME
Details: nominal 30 μM
measurement_kind: inhibition at 30 µM (%)
Give a bare numeral; the unit % is implied.

Which inhibition at 30 µM is listed for Nc1nc(O[C@H](c2ccc(Cl)cc2-c2ccccc2)C(F)(F)F)cc(N2CCC3(CC2)CN[C@H](C(=O)O)C3)n1 ? 25

---

Test: Clinical pharmacokinetics in healthy subjects (Studies RVT-1201-1001 and KAR5585-101)
Assay type: in vivo, human
Details: human, plasma, oral; 400 mg BID dosing; read-out: Average geometric mean plasma terminal t1/2 (converted)
measurement_kind: half-life (h)
Give a bare numeral; the unit h is implied.

Which half-life is listed for CCOC(=O)[C@@H]1CC2(CCN(c3cc(O[C@H](c4ccc(Cl)cc4-c4ccccc4)C(F)(F)F)nc(N)n3)CC2)CN1 ? 5.2

---

Test: Clinical pharmacokinetics in healthy subjects (Studies RVT-1201-1001 and KAR5585-101)
Type: in vivo, human
Conditions: male, human, plasma, oral; Regimen C, 400 mg single dose of RVT-1201; read-out: Median Tmax
measurement_kind: Tmax

Which Tmax is listed for Nc1nc(O[C@H](c2ccc(Cl)cc2-c2ccccc2)C(F)(F)F)cc(N2CCC3(CC2)CN[C@H](C(=O)O)C3)n1 ? 3.5 h

---

Target: CYP2C8 (Homo sapiens, UniProt P10632)
Sequence (P10632 whole entry): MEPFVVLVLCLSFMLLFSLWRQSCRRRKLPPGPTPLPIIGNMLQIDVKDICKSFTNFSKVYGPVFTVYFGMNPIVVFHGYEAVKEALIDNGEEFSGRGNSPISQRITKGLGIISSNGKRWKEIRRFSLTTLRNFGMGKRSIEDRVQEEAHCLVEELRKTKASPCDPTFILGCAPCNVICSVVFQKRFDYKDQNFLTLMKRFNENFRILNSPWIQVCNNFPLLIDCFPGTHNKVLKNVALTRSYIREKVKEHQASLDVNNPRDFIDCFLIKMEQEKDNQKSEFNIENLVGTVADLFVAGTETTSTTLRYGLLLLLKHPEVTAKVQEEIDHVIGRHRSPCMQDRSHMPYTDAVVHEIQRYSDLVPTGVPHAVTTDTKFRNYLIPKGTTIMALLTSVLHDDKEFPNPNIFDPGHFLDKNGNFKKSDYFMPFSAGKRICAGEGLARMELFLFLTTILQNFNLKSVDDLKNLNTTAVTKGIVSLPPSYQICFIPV
Assay: Direct and time-dependent CYP inhibition, pooled human liver microsomes
Type: in vitro ADME
Design: from tissue; host or cells: pooled human liver microsomes (n=200 donors)
Conditions: human liver microsomes; read-out: In vitro IC50, direct inhibition, CYP2C8
measurement_kind: IC50 (nM)
Give a bare numeral; the unit nM is implied.

smiles | measurement_kind | reported
Nc1nc(O[C@H](c2ccc(Cl)cc2-c2ccccc2)C(F)(F)F)cc(N2CCC3(CC2)CN[C@H](C(=O)O)C3)n1 | IC50 | 2800

Now look at this entry.
Which IC50 is listed for CCOC(=O)[C@@H]1CC2(CCN(c3cc(O[C@H](c4ccc(Cl)cc4-c4ccccc4)C(F)(F)F)nc(N)n3)CC2)CN1 ? 2800

---

Assay: Clinical pharmacokinetics in healthy subjects (Studies RVT-1201-1001 and KAR5585-101)
Type: in vivo, human
Conditions: male, human, plasma, oral; Regimen C, 400 mg single dose of RVT-1201; read-out: Geometric mean Cmax
measurement_kind: Cmax (ng/mL)
Give a bare numeral; the unit ng/mL is implied.

Which Cmax is listed for Nc1nc(O[C@H](c2ccc(Cl)cc2-c2ccccc2)C(F)(F)F)cc(N2CCC3(CC2)CN[C@H](C(=O)O)C3)n1 [Rodatristat] ? 517

---

Target: CYP2D6 (Homo sapiens, UniProt P10635)
Sequence (P10635 whole entry): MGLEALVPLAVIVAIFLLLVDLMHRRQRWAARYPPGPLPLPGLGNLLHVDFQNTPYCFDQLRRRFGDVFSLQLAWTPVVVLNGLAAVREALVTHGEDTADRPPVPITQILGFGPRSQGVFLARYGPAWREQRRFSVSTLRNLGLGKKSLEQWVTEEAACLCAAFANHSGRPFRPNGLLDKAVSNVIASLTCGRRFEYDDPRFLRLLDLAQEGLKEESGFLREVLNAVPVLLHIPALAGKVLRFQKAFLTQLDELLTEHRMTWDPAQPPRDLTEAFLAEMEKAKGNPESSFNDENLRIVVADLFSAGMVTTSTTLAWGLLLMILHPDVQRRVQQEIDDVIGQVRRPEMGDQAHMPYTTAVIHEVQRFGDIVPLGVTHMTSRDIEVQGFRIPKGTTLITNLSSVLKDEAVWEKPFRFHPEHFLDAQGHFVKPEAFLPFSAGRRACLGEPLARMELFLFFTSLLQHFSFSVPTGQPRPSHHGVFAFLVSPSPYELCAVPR
Assay: Direct and time-dependent CYP inhibition, pooled human liver microsomes
Settings: human liver microsomes; read-out: In vitro IC50, direct inhibition, CYP2D6
pIC50: −log10 of the molar value.
measurement_kind: pIC50

Which pIC50 is listed for CCOC(=O)[C@@H]1CC2(CCN(c3cc(O[C@H](c4ccc(Cl)cc4-c4ccccc4)C(F)(F)F)nc(N)n3)CC2)CN1 ? < 4.52

---

Tested on: CYP3A4
Assay: CYP mRNA induction, cultured human hepatocytes from 3 donors
Format: in vitro ADME
Settings: mRNA, human hepatocytes; read-out: In vitro induction parameter EC50, CYP3A4
Method: “mM^”=millimolar. CYP induction was evaluated using cultured human hepatocytes (from 3 donors) treated once daily for 3 days with RE/R concentrations to […]. CYP induction was evaluated in vitro using cultured human hepatocytes from 3 donors. […]
measurement_kind: pEC50
Conceptually, pEC50 converts a concentration in mol/L into minus its log10.

compound | reported
CCOC(=O)[C@@H]1CC2(CCN(c3cc(O[C@H](c4ccc(Cl)cc4-c4ccccc4)C(F)(F)F)nc(N)n3)CC2)CN1 [Rodatristat ethyl] | 4.81

Now look at this entry.
Which pEC50 is listed for Nc1nc(O[C@H](c2ccc(Cl)cc2-c2ccccc2)C(F)(F)F)cc(N2CCC3(CC2)CN[C@H](C(=O)O)C3)n1 [Rodatristat] ? 4.57

---

Target: CYP2B6 (Homo sapiens)
Experiment: Direct and time-dependent CYP inhibition, pooled human liver microsomes
Assay type: in vitro ADME
Set-up: from tissue; host or cells: pooled human liver microsomes (n=200 donors)
Settings: human, pooled human liver microsomes; 30 μM; range given across CYPs 2B6, 2C9 and 3A4/5
Experimental: “mM^”=millimolar. CYP induction was evaluated using cultured human hepatocytes (from 3 donors) treated once daily for 3 days with RE/R concentrations to […]. The competitive inhibition of specific CYP isoforms was investigated for RVT-1201 and KAR5417 in human liver microsomes (HLM) (XT155056). Of the […] evaluated in vitro (CYP1A2, CYP2B6, CYP2C8, CYP2C9, CYP2D6, CYP3A4, CYP3A5), RVT-1201 IC50 estimates were determined for CYP2B6, CYP2C8 and CYP3A4 only. […]
measurement_kind: inhibition at 30 µM

Which inhibition at 30 µM is listed for Nc1nc(O[C@H](c2ccc(Cl)cc2-c2ccccc2)C(F)(F)F)cc(N2CCC3(CC2)CN[C@H](C(=O)O)C3)n1 ? 27 to 45%
